Form field: CPE inhibition (one value per entry).
# assay.text: inhibition of RSV-induced cytopathic effect – HEp-2 cells, primary 10 µM value included (AID 2391)
# measurement.context: at 10 µM, active compounds read high
About 410 (0.13%) of roughly 310,000 compounds were called active. Another 2% or so got no clear call; they are omitted. A selection follows. Entries with a potency or affinity are not part of this list.
Please respond with the number in % and leave the unit unwritten.

>  <smiles.repr>
C/C(=N/NS(C)(=O)=O)c1ccc2ccccc2c1

>  <reading>
-0.76

$$$$

Request: GET /values?readout=CPE inhibition&item= O=C(COc1ccccc1)Nc1nc2c(s1)CCCC2
Response: 14

Request: Would you kindly repeat that for COc1cc(/C=C2\SC(=S)N(NS(=O)(=O)c3ccccc3)C2=O)ccc1O ?
Response: 4.97

Request: Record: Cc1cc(SCC(=O)c2ccccc2)n2ncc(-c3ccccc3)c2n1
Response: 4.59

Request: Now consider N#C/C(=C\c1ccccc1O)C(=O)Nc1ccccn1 .
Response: 9.95

Request: Subsequent entry: O=C(CO/N=C/c1ccccc1)Nc1c(F)c(F)c(F)c(F)c1F
Response: 2.75

====

# assay.text: inhibition of RSV-induced cytopathic effect – HEp-2 cells, primary 10 µM value included (AID 2391)
# measurement.context: at 10 µM, active compounds read high
Screen size: about 310,000 compounds; about 410 (0.13%) were called active. Not shown: some 2% with an inconclusive outcome. These entries were drawn from the full list. Potency and affinity values are given separately.
Known CPE inhibition of a selection of compounds

Use these answered entries as a reference point.
>  <compound>
CCOC(=O)c1c(-c2cccc(C)c2)csc1NC(=O)C1CC=CCC1C(=O)O (configuration not stated)

>  <CPE inhibition>
1.3% (inactive)

$$$$
>  <compound>
CCc1ccccc1NC(=O)NNC(=O)CCc1ccc(OC)cc1

>  <CPE inhibition>
1.38% (inactive)

$$$$
>  <compound>
Cc1c(-c2ccccc2Cl)nc2ccccc2c1C(=O)O

>  <CPE inhibition>
1.54% (inactive)

$$$$
>  <compound>
CCCCCc1cc(=O)oc2c(C(CCN3CCCCC3)c3ccc(OC)cc3)c(OC)cc(OC)c12 (configuration not stated)

>  <CPE inhibition>
-3.75% (inactive)

$$$$
>  <compound>
CC(C)CNC(=O)c1cccc(NC(=O)Cc2ccc(Br)cc2)c1

>  <CPE inhibition>
15.3% (inactive)

$$$$
>  <compound>
CCC(C)NCC(=O)Nc1cc(S(=O)(=O)N(CC)c2ccccc2)ccc1Cl (configuration not stated)

>  <CPE inhibition>
10.6% (inactive)

$$$$

Request: CPE inhibition lookup needed for CCOC(=O)C1CCN(C(=O)c2cccc(S(=O)(=O)N3c4ccccc4CC3C)c2)CC1 (configuration not stated) , thanks.
Response: 0.5% (inactive)

Request: // repeat for Nc1nc(SCC(=O)c2ccc(F)cc2)n[nH]1 and report
Response: 0.71% (inactive)

Request: Param item: CCN(c1ccccc1)S(=O)(=O)c1ccc(OC)c(NC(=O)Cc2ccc(F)cc2)c1
Response: 13.4% (inactive)

Request: CCN(c1ccccc1)S(=O)(=O)c1ccc(OC)c(NC(=O)Cc2ccc(OC)c(OC)c2)c1
Response: 8.13% (inactive)

Request: Moving on to the next compound: COC(=O)c1c(-c2ccccc2)noc1C
Response: 3.69% (inactive)

Request: Can you check O=C(O)c1[nH]c2ccc(Cl)cc2c1CC(=O)N1CCN(C(=O)c2ccco2)CC1 next?
Response: 0.74% (inactive)

Request: Try this compound too: CS(=O)(=O)c1ccc(Cl)c(NC(=O)CSc2n[nH]c(N)n2)c1
Response: -0.18% (inactive)

Request: Record: O=C(c1cc2cc(Cl)ccc2[nH]1)N1CCN(C(=O)c2ccco2)CC1
Response: 1.05% (inactive)

Request: And then CC(=O)N[C@@H](Cc1ccc(O)cc1)CN1C(N)=NC[C@@H]1CC(C)C , what is it?
Response: -0.28% (inactive)

Request: Please answer likewise for CCN(c1ccccc1)S(=O)(=O)c1ccc(Cl)c(NC(=O)CSc2nncs2)c1
Response: 14.1% (inactive)

Request: What about COc1ccccc1NC(=O)N1CCN(c2ccc3nnc(-c4ccc(F)cc4)n3n2)CC1 ?
Response: 20.8% (inactive)

Request: Likewise for CCN(c1ccccc1)S(=O)(=O)c1ccc(Cl)c(NC(=O)CSc2nnc(C)s2)c1 ?
Response: 17.6% (inactive)

====

# assay.text: inhibition of RSV-induced cytopathic effect – HEp-2 cells, primary 10 µM value included (AID 2391)
# measurement.context: at 10 µM, active compounds read high
Hit rate of the full screen: of about 310,000 compounds, about 410 (0.13%) were called active. About 2% were inconclusive and are not listed. These entries were drawn from the full list. Entries with a potency or affinity are not part of this list.
Recorded measurements of CPE inhibition, one per entry
Express your answer in %, writing the number without its unit.

Worked cases, CPE inhibition given:
>  <compound>
CC(C)NS(=O)(=O)c1ccc(CCC(=O)N2CCCC2)cc1

>  <unit.of.measure>
%

>  <CPE inhibition>
1.63

$$$$
>  <compound>
COc1cc(OC)cc(-c2oc(=O)c3cc(OC)c(OC)cc3c2/C=C/c2ccc(F)cc2)c1

>  <unit.of.measure>
%

>  <CPE inhibition>
3.91

$$$$
>  <compound>
CCOc1ccccc1CNC(=O)c1cn(C)c(=O)c2c1c1ccccc1n2C

>  <unit.of.measure>
%

>  <CPE inhibition>
6.47

$$$$
>  <compound>
CC(C)(C)c1cc(NC(=O)c2ccco2)no1

>  <unit.of.measure>
%

>  <CPE inhibition>
2.28

$$$$
>  <compound>
Clc1ccc(-n2c(SCc3nc4ccccc4[nH]3)nnc2-c2ccncc2)cc1

>  <unit.of.measure>
%

>  <CPE inhibition>
0.34

$$$$
>  <compound>
COc1ccc(OC)c(N(C(=O)c2ccco2)C(C(=O)NC2CCCC2)c2ccc(N3CCOCC3)cc2)c1 (stereo unspecified)

>  <unit.of.measure>
%

>  <CPE inhibition>
1.32

$$$$
>  <compound>
COC(=O)N/N=C/c1ccc(-c2cc(Cl)ccc2Cl)o1

>  <unit.of.measure>
%

>  <CPE inhibition>
-0.35

$$$$
>  <compound>
O=C(Cc1ccccc1C(=O)O)Nc1cccc2ccccc12

>  <unit.of.measure>
%

>  <CPE inhibition>
1.4

$$$$
>  <compound>
COC(=O)N/N=C/c1ccc(-c2cc(Cl)cc(Cl)c2)o1

>  <unit.of.measure>
%

>  <CPE inhibition>
42.2

$$$$
>  <compound>
CCN(CC)CCNC(=O)c1ccc(NC(=O)Cc2ccccc2F)cc1

>  <unit.of.measure>
%

>  <CPE inhibition>
-0.24

$$$$

Continue with the next compound.
Request: Consider the compound shown here: Cc1ccc(Nc2ccc(S(=O)(=O)N3CCOCC3)cc2[N+](=O)[O-])cc1C What is its recorded CPE inhibition?
Response: 7.23

====

# assay.text: inhibition of RSV-induced cytopathic effect – HEp-2 cells, primary 10 µM value included (AID 2391)
# measurement.context: at 10 µM, active compounds read high
Among all 310,000 compounds or so, about 410 (0.13%) were called active. About 2% were inconclusive and are not listed. Not all results are given here. Potency and affinity values are given separately.
quantity: CPE inhibition (%)
Reply numerically in %, unit not repeated.

>  <smiles.repr>
COc1cnn(-c2ccccc2)c(=O)c1SCc1ccc(Cl)c(Cl)c1

>  <unit.of.measure>
%

>  <CPE inhibition>
5.77

$$$$
>  <smiles.repr>
CC(C)C[C@H](NC(=O)c1nc[nH]c1C(=O)N[C@@H](CC(C)C)C(=O)OC(C)(C)C)C(=O)OC(C)(C)C

>  <unit.of.measure>
%

>  <CPE inhibition>
-5.5

$$$$
>  <smiles.repr>
O=C(/C=C/c1ccc(OCCCF)cc1)N1CCOCC1

>  <unit.of.measure>
%

>  <CPE inhibition>
2.87

$$$$
>  <smiles.repr>
CCOc1ccc(NC(=O)CN(C)S(=O)(=O)c2ccc(-c3ccc(=O)[nH]n3)s2)cc1

>  <unit.of.measure>
%

>  <CPE inhibition>
3.93

$$$$

For the next question, use this compound.
Request: Request the reported CPE inhibition associated with CC(C)C[C@H](NC(=O)c1nc[nH]c1C(=O)NC1CCN(C(=O)OC(C)(C)C)CC1)C(=O)OC(C)(C)C
Response: 0.16

====

# assay.text: inhibition of RSV-induced cytopathic effect – HEp-2 cells, primary 10 µM value included (AID 2391)
# measurement.context: at 10 µM, active compounds read high
Among all 310,000 compounds or so, about 410 (0.13%) were called active. Inconclusive results (about 2%) are left out. Only a sample is shown. Potency and affinity values are given separately.
quantity: CPE inhibition (%)
Numbers only here, please. The scale is %.

>  <compound>
O=C(O)c1ccccc1Nc1ccccc1C(=O)O

>  <CPE inhibition (%)>
0.65

$$$$

Request: Which CPE inhibition is reported for this compound? Cc1cccc(N2CCN(C(=O)C3CCC(=O)N(C4CC4)C3)CC2)c1C (stereo unspecified)
Response: -0.26

Request: Try the compound CN1c2ccccc2C(C)(C)C12CC(c1ccc(Cl)c(S(=O)(=O)N3CCCC3)c1)=NO2 (stereo unspecified)
Response: 3.21

Request: Further, for COc1cccc(NC(=O)CSc2nc3ccccc3nc2N2CCOCC2)c1 ?
Response: 1.87

Request: Ok, now COC(=O)c1cccc(Nc2nc3ccccc3nc2C)c1
Response: 7.1

Request: Repeat with O=c1[nH]c(CNCc2cccnc2)nc2ccccc12
Response: 1.68
